Hey, just so you know, these numbers are from patent US11702418B2.

Biological target: recombinant human SOS1 polypeptide (amino acids 560-1049) (Homo sapiens (Human))
Sequence (Q07889 560-1049): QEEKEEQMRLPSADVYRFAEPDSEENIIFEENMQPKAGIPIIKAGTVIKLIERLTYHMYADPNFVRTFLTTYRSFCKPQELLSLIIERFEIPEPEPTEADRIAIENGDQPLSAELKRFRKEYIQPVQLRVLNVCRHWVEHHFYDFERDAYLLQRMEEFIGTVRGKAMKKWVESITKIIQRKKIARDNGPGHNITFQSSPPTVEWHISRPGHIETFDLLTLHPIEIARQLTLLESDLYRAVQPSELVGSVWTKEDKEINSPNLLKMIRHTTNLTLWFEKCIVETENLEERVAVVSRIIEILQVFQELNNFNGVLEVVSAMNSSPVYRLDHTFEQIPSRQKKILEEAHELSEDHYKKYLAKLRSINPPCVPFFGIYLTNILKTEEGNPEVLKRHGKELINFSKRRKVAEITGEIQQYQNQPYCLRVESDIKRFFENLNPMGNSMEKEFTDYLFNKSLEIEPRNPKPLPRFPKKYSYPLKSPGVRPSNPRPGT
Assay: biochemical
Format: binding
Details: HTRF displacement, Cy5 labelled tracer, Morrison equation for competitive binding; read-out: Ki, Inhibition of Labeled Tracer Binding to SOS1
pKi: −log10 of the molar value.
Mark yes (1) for reported pKi of 9 or greater; mark no (0) for anything smaller.

Cc1nnc(N[C@H](C)c2cc(N)cc(C(F)(F)F)n2)c2cc(N3CC(C)(N(C)C)C3)ccc12 = no (0)
Cc1c([C@@H](C)Nc2nncc3ccc(OC4CCN(C)CC4)cc23)cccc1C(F)(F)F = no (0)
Cc1nnc(N[C@H](C)c2cccc(C(F)(F)F)c2F)c2cc(N3C[C@H]4CC[C@@H]3CN4C)ncc12 = yes (1)
Cc1nnc(N[C@H](C)c2ccc(F)cc2F)c2cc(N3CC4CC(C3)O4)ncc12 = no (0)
Cc1nc(C)n2c1CN(c1ccc3c(C)nnc(N[C@H](C)c4cccc(C(F)(F)F)c4C)c3c1)CC2 = yes (1)

### Prompt Does Cc1cccc([C@@H](C)Nc2nnc(C)c3cnc(N4CCN5CCOC[C@@H]5C4)cc23)c1F have a reported pKi of at least 9?
### Response no (0)
